B1: library; a variant is named by its letters at N, in order (parent)
chain: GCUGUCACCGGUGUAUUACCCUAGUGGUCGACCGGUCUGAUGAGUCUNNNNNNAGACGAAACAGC

- Variants of: B1
- METHOD_DESCRIPTION: normalized RNA/DNA level without ligand (relative to sTRSVctl = 100) (log10 (% of sTRSVctl)); ligand: hypoxanthine (xanthine aptamer); higher = less ribozyme self-cleavage, higher mRNA level
- RECORDED_CONDITIONS: HEK293T, reporter: mCherry (pCS4076), ligand present: no
MEASUREMENT_LABEL: normalized RNA/DNA level without ligand (log10)

GCUGUCACCGGUGUAUUACCCUAGUGGUCGACCGGUCUGAUGAGUCUUUGUAGAGACGAAACAGC [UUGUAG] : 1.84
GCUGUCACCGGUGUAUUACCCUAGUGGUCGACCGGUCUGAUGAGUCUAUACUGAGACGAAACAGC [AUACUG] : 1.43
GCUGUCACCGGUGUAUUACCCUAGUGGUCGACCGGUCUGAUGAGUCUGCGACGAGACGAAACAGC [GCGACG] : 1.3
GCUGUCACCGGUGUAUUACCCUAGUGGUCGACCGGUCUGAUGAGUCUAAAUGCAGACGAAACAGC [AAAUGC] : 1.76
GCUGUCACCGGUGUAUUACCCUAGUGGUCGACCGGUCUGAUGAGUCUACGGAUAGACGAAACAGC [ACGGAU] : 1.24

Next, consider the following variant.
Q: Would you kindly share the measured normalized RNA/DNA level without ligand (log10) for GCUGUCACCGGUGUAUUACCCUAGUGGUCGACCGGUCUGAUGAGUCUCAGAGAAGACGAAACAGC [CAGAGA] ?
Ans: 1.66
